Target chain: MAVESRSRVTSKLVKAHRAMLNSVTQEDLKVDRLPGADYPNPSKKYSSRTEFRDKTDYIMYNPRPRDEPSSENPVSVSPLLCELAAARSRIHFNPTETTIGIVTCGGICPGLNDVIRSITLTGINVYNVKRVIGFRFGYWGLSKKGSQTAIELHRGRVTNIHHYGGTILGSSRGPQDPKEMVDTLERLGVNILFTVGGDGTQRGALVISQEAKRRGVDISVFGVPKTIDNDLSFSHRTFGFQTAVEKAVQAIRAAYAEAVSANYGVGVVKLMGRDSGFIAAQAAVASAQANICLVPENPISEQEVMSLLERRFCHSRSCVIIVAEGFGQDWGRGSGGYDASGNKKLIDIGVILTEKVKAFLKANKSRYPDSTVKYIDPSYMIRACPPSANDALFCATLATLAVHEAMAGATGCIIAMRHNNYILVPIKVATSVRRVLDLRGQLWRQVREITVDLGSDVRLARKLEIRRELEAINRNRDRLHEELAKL
reported-metric: IC50 (µM)
Form entry: value (µM) — number only.

| smi | reported-metric | measured-value |
| --- | --- | --- |
| CC(=O)O[C@H]1CC[C@]2(C)[C@H]3Cc4cc5ccccc5n4[C@]3(C)CC[C@H]2C1(C)C | IC50 | 170 |

Okay, now this compound:
IC50 reading for CC1(C)[C@H](O)CC[C@]2(C)[C@@H]3C[C@@H]4Nc5ccccc5[C@@H]4[C@]3(C)CC[C@@H]12 : 30

* * *

Fructose-bisphosphate aldolase A (Oryctolagus cuniculus) IC50 data
Sequence (P00883 whole entry): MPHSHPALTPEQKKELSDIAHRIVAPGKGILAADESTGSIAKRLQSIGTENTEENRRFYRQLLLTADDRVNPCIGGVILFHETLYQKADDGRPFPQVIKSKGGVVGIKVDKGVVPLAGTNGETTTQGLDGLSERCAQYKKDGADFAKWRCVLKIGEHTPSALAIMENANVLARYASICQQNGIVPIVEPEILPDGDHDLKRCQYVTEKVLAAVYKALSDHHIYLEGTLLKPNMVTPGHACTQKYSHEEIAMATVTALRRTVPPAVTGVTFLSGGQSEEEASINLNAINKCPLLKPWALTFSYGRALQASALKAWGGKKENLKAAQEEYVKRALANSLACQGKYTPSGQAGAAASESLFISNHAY
Form entry: value (µM) — number only.

IC50 on Fructose-bisphosphate aldolase A (Oryctolagus cuniculus) for CC1(C)C(=O)CC[C@]2(C)C3Cc4cc5ccccc5n4[C@]3(C)CC[C@@H]12 (some centres not stated) is 87

IC50 on Fructose-bisphosphate aldolase A (Oryctolagus cuniculus) for CC(=O)O[C@H]1CC[C@]2(C)[C@H]3Cc4cc5ccccc5n4[C@]3(C)CC[C@H]2C1(C)C is 150

* * *

system: Glyceraldehyde-3-phosphate dehydrogenase (Oryctolagus cuniculus)
Sequence (P46406 whole entry): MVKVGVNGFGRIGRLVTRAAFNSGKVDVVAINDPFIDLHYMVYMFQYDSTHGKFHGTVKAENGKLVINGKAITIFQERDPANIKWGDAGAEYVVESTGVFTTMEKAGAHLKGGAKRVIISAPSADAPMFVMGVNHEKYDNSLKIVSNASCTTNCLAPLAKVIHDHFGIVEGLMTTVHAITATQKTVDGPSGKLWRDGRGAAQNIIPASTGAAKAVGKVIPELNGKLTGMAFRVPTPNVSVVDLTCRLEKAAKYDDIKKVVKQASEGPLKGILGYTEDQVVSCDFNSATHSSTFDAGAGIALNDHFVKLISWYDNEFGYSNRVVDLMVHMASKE
reported-metric: IC50 (µM)
Form entry: value (µM) — number only.

IC50 on Glyceraldehyde-3-phosphate dehydrogenase (Oryctolagus cuniculus) for CC1(C)[C@H](O)CC[C@]2(C)[C@@H]3C[C@@H]4Nc5ccccc5[C@@H]4[C@]3(C)CC[C@@H]12 [POLYVEOLINE] is 620

* * *

Sequence of the target: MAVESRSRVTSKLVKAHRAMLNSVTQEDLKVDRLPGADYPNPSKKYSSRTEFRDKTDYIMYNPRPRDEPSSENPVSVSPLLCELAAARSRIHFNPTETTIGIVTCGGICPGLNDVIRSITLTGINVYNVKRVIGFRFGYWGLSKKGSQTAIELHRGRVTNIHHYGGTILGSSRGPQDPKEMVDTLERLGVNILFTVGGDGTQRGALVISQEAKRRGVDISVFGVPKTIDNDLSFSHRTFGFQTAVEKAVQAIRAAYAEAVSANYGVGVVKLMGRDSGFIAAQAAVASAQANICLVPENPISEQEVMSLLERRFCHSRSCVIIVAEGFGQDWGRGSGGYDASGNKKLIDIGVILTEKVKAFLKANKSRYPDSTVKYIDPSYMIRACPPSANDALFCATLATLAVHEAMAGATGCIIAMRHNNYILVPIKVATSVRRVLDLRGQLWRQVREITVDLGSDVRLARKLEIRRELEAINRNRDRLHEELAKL
reported-metric: Ki (µM)
Form entry: value (µM) — number only.

Ki reading for CC1(C)C(=O)CC[C@]2(C)C3Cc4cc5ccccc5n4[C@]3(C)CC[C@@H]12 (stereo partly specified) : 10

* * *

run-description: Inhibition of Trypanosoma brucei GAPDH expressed in Escherichia coli
Recorded IC50 for the following compounds

| compound | IC50 |
| --- | --- |
| CC(=O)O[C@H]1CC[C@]2(C)[C@H]3Cc4cc5ccccc5n4[C@]3(C)CC[C@H]2C1(C)C | 110 µM |

IC50 reading for CC1(C)C(=O)CC[C@]2(C)C3Cc4cc5ccccc5n4[C@]3(C)CC[C@@H]12 (stereo partly drawn) : 1050 µM

IC50 reading for CC1(C)[C@H](O)CC[C@]2(C)[C@@H]3C[C@@H]4Nc5ccccc5[C@@H]4[C@]3(C)CC[C@@H]12 [POLYVEOLINE] : 110 µM

* * *

Tested on: Trypanosoma brucei brucei
run-description: Antitrypanosomal activity against Trypanosoma brucei brucei 427 bloodstream form after 72 hrs by LILIT method
Assay type: functional
cond: Trypanosoma brucei, 427, 72 h; read-out: ED50 (the source's name)
reported-metric: EC50 (µM)
Form entry: value (µM) — number only.

| compound | system | EC50 [µM] |
| --- | --- | --- |
| CC1(C)C(=O)CC[C@]2(C)C3Cc4cc5ccccc5n4[C@]3(C)CC[C@@H]12 (some centres undefined) | Trypanosoma brucei brucei | 18 |

EC50 reading for Nc1nc(N)nc(Nc2ccc([As]3SCC(CO)S3)cc2)n1 (centres undefined) : 0.00395

EC50 reading for CC(=O)N1c2ccccc2[C@H]2[C@@H]1C[C@@H]1[C@@]2(C)CC[C@H]2C(C)(C)[C@H](O)CC[C@]12C : 32

EC50 reading for CC1(C)[C@H](O)CC[C@]2(C)[C@@H]3C[C@@H]4Nc5ccccc5[C@@H]4[C@]3(C)CC[C@@H]12 : 54
